Reference source: patent US20240116985A1

biological target: full-length beta-Catenin (Uniprot ID P35222) (Homo sapiens); construct: 10 nM full-length beta-Catenin (Uniprot ID P35222); experiment: Fluorescence polarization IC50 (beta-catenin / 5FAM-TCF4 10-53 competition); type: binding; details: fluorescence polarization; read-out: beta-Catenin FP IC50
Sequence (P35222 whole entry): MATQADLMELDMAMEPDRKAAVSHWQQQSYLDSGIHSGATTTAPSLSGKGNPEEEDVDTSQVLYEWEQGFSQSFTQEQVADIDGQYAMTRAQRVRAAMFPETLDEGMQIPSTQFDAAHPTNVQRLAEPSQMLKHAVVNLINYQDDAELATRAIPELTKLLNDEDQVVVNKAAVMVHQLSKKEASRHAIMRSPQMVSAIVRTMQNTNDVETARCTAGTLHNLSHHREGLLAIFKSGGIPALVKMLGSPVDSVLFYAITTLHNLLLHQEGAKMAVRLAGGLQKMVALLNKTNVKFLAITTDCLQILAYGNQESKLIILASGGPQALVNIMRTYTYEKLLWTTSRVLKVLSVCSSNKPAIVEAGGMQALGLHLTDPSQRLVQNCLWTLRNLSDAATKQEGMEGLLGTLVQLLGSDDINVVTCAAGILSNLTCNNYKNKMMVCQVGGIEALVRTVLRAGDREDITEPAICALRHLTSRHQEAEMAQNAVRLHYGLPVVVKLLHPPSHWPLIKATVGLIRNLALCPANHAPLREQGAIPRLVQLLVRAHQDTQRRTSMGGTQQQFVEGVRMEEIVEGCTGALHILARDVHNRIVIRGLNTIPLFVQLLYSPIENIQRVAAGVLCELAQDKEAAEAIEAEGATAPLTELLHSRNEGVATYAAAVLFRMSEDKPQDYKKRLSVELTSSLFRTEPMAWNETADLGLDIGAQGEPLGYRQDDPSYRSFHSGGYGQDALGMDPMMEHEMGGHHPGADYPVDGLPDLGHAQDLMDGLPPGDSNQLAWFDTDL
reported endpoint: IC50 (nM)
The response must be a number in nM with no trailing unit.

Take a look at these entries with their results.
{"compound": "CC(=O)N1CCC[C@]12CC=CCCCC1(CCCC=CCCCOC(=O)N3CC[C@@](C(=O)N[C@@H](Cc4ccsc4)C(=O)N[C@@H](Cc4csc5ccccc45)C(=O)N[C@@H](CCC(N)=O)C(N)=O)(C3)NC(=O)[C@H](Cc3ccc(C(F)(F)F)cc3)NC(=O)[C@H](Cc3ccccc3)NC(=O)[C@H](C)NC(=O)[C@H](C)NC(=O)[C@H](CC(=O)O)NC(=O)[C@H](CC(=O)O)NC1=O)NC(=O)[C@H](CC(C)(C)C)NC(=O)[C@H](CC(=O)O)NC2=O (some centres unmarked)", "units symbol": "nM", "measurement": 9}
{"compound": "CC[C@H](C)[C@@H]1NC(=O)[C@H](CC(=O)O)NC(=O)[C@]2(CC=CCCCC3(CCCC=CCCCCCC[C@@](C)(C(=O)N[C@@H](Cc4ccccc4)C(=O)N[C@@H](Cc4csc5ccccc45)C(=O)N[C@@H](CCC(N)=O)C(N)=O)NC(=O)[C@H](CCC(N)=O)NC(=O)[C@H](Cc4ccccc4)NC(=O)[C@H](C)NC(=O)[C@H](C)NC(=O)[C@H](CCCNC(N)=O)NC(=O)[C@H](CC(=O)O)NC3=O)NC1=O)CCCN2C(C)=O (some centres unmarked) [I-605]", "units symbol": "nM", "measurement": 632}
{"compound": "CC(=O)N1CCC[C@]12CC=CCCCC1(CCCC=CCCCOC(=O)N3CC[C@@](C(=O)N[C@@H](Cc4ccccc4)C(=O)N[C@@H](Cc4csc5ccccc45)C(=O)N[C@@H](CC(=O)N4CCOCC4)C(N)=O)(C3)NC(=O)[C@H](CC(C)C)NC(=O)[C@H](Cc3ccccc3)NC(=O)[C@H](C)NC(=O)[C@H](CCCCNC(=O)CCN(C)C)NC(=O)[C@H](CCC(N)=O)NC(=O)[C@H](CC(=O)O)NC1=O)NC(=O)[C@H](CC1CCCCC1)NC(=O)[C@H](CC(N)=O)NC2=O (some centres unmarked)", "units symbol": "nM", "measurement": 610}
{"compound": "CC(=O)N1CCC[C@H]1C(=O)N[C@@H](CC(=O)O)C(=O)N[C@@H](CC(C)(C)C)C(=O)N[C@]1(C)CCCCCCOC(=O)N2CC[C@@](C(=O)N[C@@H](Cc3ccsc3)C(=O)N[C@@H](Cc3csc4ccccc34)C(=O)N[C@@H](CCC(N)=O)C(N)=O)(C2)NC(=O)[C@H](CC(C)C)NC(=O)[C@H](Cc2ccccc2)NC(=O)[C@H](C)NC(=O)[C@H](C)NC(=O)[C@H](CC(=O)O)NC(=O)[C@H](CC(=O)O)NC1=O", "units symbol": "nM", "measurement": 728}

Please look at the following compound next.
**Q:** Supply reported IC50 belonging to this compound: CC(=O)N1CCC[C@]12CC=CCCCC1(CCCC=CCCCOC(=O)N3CC[C@@](C(=O)N[C@@H](Cc4ccsc4)C(=O)N[C@@H](Cc4csc5ccccc45)C(=O)N[C@@H](Cc4c[nH]cn4)C(N)=O)(C3)NC(=O)[C@H](CC(N)=O)NC(=O)[C@H](Cc3ccccc3)NC(=O)[C@H](C)NC(=O)[C@H](C)NC(=O)[C@H](CCC(=O)O)NC(=O)[C@H](CC(=O)O)NC1=O)NC(=O)[C@H](CC(C)(C)C)NC(=O)[C@H](CC(=O)O)NC2=O (some centres unmarked) [I-698]
**A:** 5
